The values you see were collected from patent US20250213555A1.

biological target: UniProtKB Q9Y5Y9; test: E-VIPR assay detecting and measuring Nav inhibition properties; assay type: cell-based; settings: HEK cells expressing a truncated form of human Nav 1.8; compound numbers without "*" (not marked as run in the presence of human serum); read-out: measured IC50 value in the E-VIPR Assay
pIC50: −log10 of the molar value.
The entries below come with measured pIC50 values attached.

# compound "COc1c([C@H]2[C@H](C(=O)Nc3ccnc(C(=O)N[C@H]4CNCC[C@H]4OC)c3)O[C@@](C)(C(F)(F)F)[C@H]2C)ccc(F)c1F" ; its pIC50 = 6.00 to 7.00

---

molecular target: UniProt:Q9Y5Y9; experiment: E-VIPR assay detecting and measuring Nav inhibition properties; assay type: cell-based; conditions: HEK cells expressing a truncated form of human Nav 1.8; compound numbers without "*" (not marked as run in the presence of human serum); read-out: measured IC50 value in the E-VIPR Assay
pIC50: −log10 of the molar value.
List of pIC50 values.

Previously resolved entries follow.
C[C@H]1[C@@H](c2ccc(F)c(F)c2OCc2cn(C)cn2)[C@H](C(=O)Nc2ccnc(C(N)=O)c2)O[C@@]1(C)C(F)(F)F : > 8.00
COc1c([C@H]2[C@H](C(=O)Nc3ccnc(C(=O)NC4CNC4)c3)O[C@@](C)(C(F)(F)F)[C@H]2C)ccc(F)c1F : 7.00 to 8.00
COC[C@H]1CN(C(=O)c2cc(NC(=O)[C@@H]3O[C@@](C)(C(F)(F)F)[C@@H](C)[C@H]3c3ccc(F)c(F)c3OC)ccn2)CCN1C : > 8.00
CNC(=O)COc1c([C@H]2[C@H](C(=O)Nc3ccnc(C(N)=O)c3)O[C@@](C)(C(F)(F)F)[C@H]2C)ccc(F)c1F : 7.00 to 8.00
C[C@H]1[C@@H](c2ccc(F)c(F)c2OCC2(O)CC2)[C@H](C(=O)Nc2ccnc(C(N)=O)c2)O[C@@]1(C)C(F)(F)F : > 8.00

Moving on to the next compound.
Known value: UniProt:Q9Y5Y9 pIC50 of the compound "C[C@H]1[C@@H](c2ccc(F)c(F)c2OCCN(C)C)[C@H](C(=O)Nc2ccnc(C(N)=O)c2)O[C@@]1(C)C(F)(F)F" equals 7.00 to 8.00

---

Target: human Nav 1.8 (Homo sapiens, UniProt Q9Y5Y9)
Sequence (Q9Y5Y9 126-399 limits assumed): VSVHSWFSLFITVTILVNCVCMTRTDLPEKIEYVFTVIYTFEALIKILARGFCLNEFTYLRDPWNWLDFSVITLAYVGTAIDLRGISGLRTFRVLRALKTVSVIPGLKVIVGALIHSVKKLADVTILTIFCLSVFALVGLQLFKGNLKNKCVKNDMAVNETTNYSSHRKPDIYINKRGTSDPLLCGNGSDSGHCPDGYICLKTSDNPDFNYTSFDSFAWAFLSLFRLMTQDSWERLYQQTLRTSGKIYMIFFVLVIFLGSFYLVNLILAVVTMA
Sequence (Q9Y5Y9 660-890 limits assumed): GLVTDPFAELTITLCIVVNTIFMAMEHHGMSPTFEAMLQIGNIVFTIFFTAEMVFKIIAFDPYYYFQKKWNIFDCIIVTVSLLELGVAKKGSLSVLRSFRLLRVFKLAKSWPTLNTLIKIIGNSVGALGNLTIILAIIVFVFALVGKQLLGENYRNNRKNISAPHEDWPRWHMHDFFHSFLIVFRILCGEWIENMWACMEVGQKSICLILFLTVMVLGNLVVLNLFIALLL
Sequence (Q9Y5Y9 1148-1722 limits assumed): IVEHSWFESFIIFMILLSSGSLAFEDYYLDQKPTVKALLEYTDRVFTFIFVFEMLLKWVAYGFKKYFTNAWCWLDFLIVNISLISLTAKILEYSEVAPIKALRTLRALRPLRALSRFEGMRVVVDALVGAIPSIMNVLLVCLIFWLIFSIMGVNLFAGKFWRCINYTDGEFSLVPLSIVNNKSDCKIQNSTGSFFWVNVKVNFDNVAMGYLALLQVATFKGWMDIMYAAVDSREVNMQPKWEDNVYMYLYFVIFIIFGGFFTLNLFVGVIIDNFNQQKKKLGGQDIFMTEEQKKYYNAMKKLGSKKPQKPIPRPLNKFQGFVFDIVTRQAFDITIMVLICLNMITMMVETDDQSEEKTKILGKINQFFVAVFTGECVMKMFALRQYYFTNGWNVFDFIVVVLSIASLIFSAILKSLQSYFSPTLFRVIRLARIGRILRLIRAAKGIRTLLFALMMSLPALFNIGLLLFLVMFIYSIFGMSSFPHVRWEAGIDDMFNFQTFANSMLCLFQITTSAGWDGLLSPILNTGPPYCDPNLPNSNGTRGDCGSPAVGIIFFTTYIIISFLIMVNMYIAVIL
Assay: E-VIPR assay detecting and measuring Nav inhibition properties
Assay type: cell-based
Settings: HEK cells expressing a truncated form of human Nav 1.8; compound numbers without "*" (not marked as run in the presence of human serum); read-out: measured IC50 value in the E-VIPR Assay
Text: E-VIPR Assay Detecting and Measuring Nav Inhibition Properties Sodium ion channels are voltage-dependent proteins that can be activated by inducing membrane voltage changes by applying electric fields. […]
pIC50: −log10 of the molar value.
ATTRIBUTE_MEASURED: pIC50

COc1c([C@@H]2[C@@H](C)[C@@](C)(C(F)(F)F)O[C@H]2C(=O)Nc2ccnc(C(N)=O)c2)ccc(OCC2CC2)c1F (single isomer, unassigned) [Compound 142] : ≤ 6.00
COCCOc1c([C@@H]2[C@@H](C(=O)Nc3ccnc(C(N)=O)c3)O[C@](C)(C(F)(F)F)[C@@H]2C)ccc(F)c1F (stereo in doubt) [Compound 1] : 6.00 to 7.00

Please find the next molecule below.
Field pIC50 (entry C[C@H]1[C@@H](c2ccc(F)c(F)c2OCCCN2CCC2)[C@H](C(=O)Nc2ccnc(C(N)=O)c2)O[C@@]1(C)C(F)(F)F [Compound 134] ) reads 7.00 to 8.00

---

molecular target: human Nav 1.8 (Homo sapiens, UniProt Q9Y5Y9); test: E-VIPR assay detecting and measuring Nav inhibition properties; assay type: cell-based; settings: HEK cells expressing a truncated form of human Nav 1.8; compound numbers without "*" (not marked as run in the presence of human serum); read-out: measured IC50 value in the E-VIPR Assay
Entries and their measured IC50 follow.

Some solved entries appear below for comparison.
COc1c([C@H]2[C@H](C(=O)Nc3cc(C(=O)N4CCN(C)CC4)ccn3)O[C@@](C)(C(F)(F)F)[C@H]2C)ccc(F)c1F [Compound 14] : 0.1 to 1 µM
COc1c([C@H]2[C@H](C(=O)Nc3ccnc(C(=O)N4C[C@@H](N)[C@@H](OC)C4)c3)O[C@@](C)(C(F)(F)F)[C@H]2C)ccc(F)c1F [Compound 261] : < 0.01 µM

Turning now to a further compound:
Sure, the documented IC50 for C[C@H]1[C@@H](c2ccc(F)c(F)c2OCCN2CC(C(F)F)C2)[C@H](C(=O)Nc2ccnc(C(N)=O)c2)O[C@@]1(C)C(F)(F)F [Compound 120] is < 0.01 µM

---

target: human Nav 1.8 (Homo sapiens); assay: E-VIPR assay detecting and measuring Nav inhibition properties; format: cell-based; conditions: HEK cells expressing a truncated form of human Nav 1.8; compound numbers without "*" (not marked as run in the presence of human serum); read-out: measured IC50 value in the E-VIPR Assay
ATTRIBUTE_MEASURED: IC50

Examples with answers:
COc1c([C@H]2[C@H](C(=O)Nc3ccnc(C(=O)N4C[C@@H](N)[C@H](F)C4)c3)O[C@@](C)(C(F)(F)F)[C@H]2C)ccc(F)c1F : < 10 nM
COc1c([C@H]2[C@H](C(=O)Nc3ccnc(C(N)=O)c3)O[C@@](C)(C(F)(F)F)[C@H]2C)cc(OC2CC(F)(F)C2)c(F)c1F : 100 to 1000 nM
C[C@H]1[C@@H](c2ccc(F)c(F)c2OCC2(C)COC2)[C@H](C(=O)Nc2ccnc(C(N)=O)c2)O[C@@]1(C)C(F)(F)F : 10 to 100 nM
COc1c([C@H]2[C@H](C(=O)Nc3ccnc(C(=O)N(C)O)c3)O[C@@](C)(C(F)(F)F)[C@H]2C)ccc(F)c1F : < 10 nM

Please find the next compound below.
Reading of IC50 for C[C@]1(C(F)(F)F)C[C@@H](c2ccc(OC(F)(F)F)cc2Cl)[C@H](C(=O)Nc2ccnc(C(N)=O)c2)O1 (stereo in doubt) with human Nav 1.8 (Homo sapiens): 10 to 100 nM

---

molecular target: human Nav 1.8 (Homo sapiens); experiment: E-VIPR assay detecting and measuring Nav inhibition properties; assay type: cell-based; conditions: HEK cells expressing a truncated form of human Nav 1.8; compound numbers without "*" (not marked as run in the presence of human serum); read-out: measured IC50 value in the E-VIPR Assay
ATTRIBUTE_MEASURED: IC50

Take a look at these entries with their results.
C[C@@H](COc1c([C@H]2[C@H](C(=O)Nc3ccnc(C(N)=O)c3)O[C@@](C)(C(F)(F)F)[C@H]2C)ccc(F)c1F)N1CC2(COC2)C1 : < 10 nM
COc1c([C@H]2[C@H](C(=O)Nc3ccnc(C(=O)N[C@@H]4CNC[C@H](C)C4)c3)O[C@@](C)(C(F)(F)F)[C@H]2C)ccc(F)c1F : 10 to 100 nM
COc1c([C@H]2[C@H](C(=O)Nc3ccnc(C(=O)N4CCN(C)CC4)c3)O[C@@](C)(C(F)(F)F)[C@H]2C)ccc(F)c1F : < 10 nM
CO[C@H](CO)COc1c([C@H]2[C@H](C(=O)Nc3ccnc(C(N)=O)c3)O[C@@](C)(C(F)(F)F)[C@H]2C)ccc(F)c1F (single isomer, unassigned) [Compound 160] : < 10 nM
C[C@H]1[C@@H](c2ccc(F)c(F)c2OC[C@H]2C[C@](O)(C(F)(F)F)C2)[C@H](C(=O)Nc2ccnc(C(N)=O)c2)O[C@@]1(C)C(F)(F)F : 10 to 100 nM
COc1c([C@H]2[C@H](C(=O)Nc3ccnc(C(=O)NC[C@]4(C)CCCN4)c3)O[C@@](C)(C(F)(F)F)[C@H]2C)ccc(F)c1F : 10 to 100 nM
COc1c(C2CC3(COC3)OC2C(=O)Nc2ccnc(C(N)=O)c2)ccc(F)c1C (single isomer, unassigned) : ≥ 1000 nM
CC1C(c2ccc(F)c(F)c2OCC2CC(C)(O)C2)C(C(=O)Nc2ccnc(C(N)=O)c2)OC1(C)C(F)(F)F (stereo not drawn) [Compound 199] : 10 to 100 nM

For the compound CC1C(c2ccc(F)c(F)c2OCC2CC(O)C2)C(C(=O)Nc2cccc(C(N)=O)c2)OC1(C)C(F)(F)F (single isomer, unassigned) , the measured IC50 on human Nav 1.8 (Homo sapiens) was < 10 nM

Field IC50 (human Nav 1.8 (Homo sapiens)), entry "C[C@H]1[C@@H](c2ccc(F)c(F)c2OCCN2CC(OC(F)F)C2)[C@H](C(=O)Nc2ccnc(C(N)=O)c2)O[C@@]1(C)C(F)(F)F" : < 10 nM

The observed IC50 for "COc1c([C@H]2[C@H](C(=O)Nc3ccnc(C(=O)N4CCO[C@H]5CNC[C@H]54)c3)O[C@@](C)(C(F)(F)F)[C@H]2C)ccc(F)c1F" when tested with human Nav 1.8 (Homo sapiens) stands at < 10 nM

The measured IC50 that "COc1c([C@H]2[C@H](C(=O)Nc3ccnc(C(=O)N(C)[C@H]4CN(C)C[C@@H]4OC)c3)O[C@@](C)(C(F)(F)F)[C@H]2C)ccc(F)c1F" showed for human Nav 1.8 (Homo sapiens) is < 10 nM
